Target: CB2R-I110^3.29L (Homo sapiens, UniProt P34972, I110L)
Sequence (P34972 whole entry I110L): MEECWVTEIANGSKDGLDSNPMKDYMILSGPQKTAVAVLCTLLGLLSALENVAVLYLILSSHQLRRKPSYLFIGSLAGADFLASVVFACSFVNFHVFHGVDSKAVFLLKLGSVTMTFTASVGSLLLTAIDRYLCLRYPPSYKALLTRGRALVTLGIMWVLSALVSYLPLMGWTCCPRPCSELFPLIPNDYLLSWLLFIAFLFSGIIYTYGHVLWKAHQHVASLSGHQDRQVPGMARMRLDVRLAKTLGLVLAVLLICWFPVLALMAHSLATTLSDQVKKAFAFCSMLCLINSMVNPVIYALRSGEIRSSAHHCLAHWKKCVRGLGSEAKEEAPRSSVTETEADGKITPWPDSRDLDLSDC
Test: [3H]CP55,940 displacement assay, CB2R I110L mutant
Assay type: binding

{"columns": ["structureAsSmiles", "Ki [nM]"],
 "data": [
  ["CCCCC/C=C\\C/C=C\\C/C=C\\C/C=C\\CCCC(=O)OC(CO)CO", 1580]
]}

* * *

Target: CB2R WT (Homo sapiens)
Sequence (P34972 whole entry): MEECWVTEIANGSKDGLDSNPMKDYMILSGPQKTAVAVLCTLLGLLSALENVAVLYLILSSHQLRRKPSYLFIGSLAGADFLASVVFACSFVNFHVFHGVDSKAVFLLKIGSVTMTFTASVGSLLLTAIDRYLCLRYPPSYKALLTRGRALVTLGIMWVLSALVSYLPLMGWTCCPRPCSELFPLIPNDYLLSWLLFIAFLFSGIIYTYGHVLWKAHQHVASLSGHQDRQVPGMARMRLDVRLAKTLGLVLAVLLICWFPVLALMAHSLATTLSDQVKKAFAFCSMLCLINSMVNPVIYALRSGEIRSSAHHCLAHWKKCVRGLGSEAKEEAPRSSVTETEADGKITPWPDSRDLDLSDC
Assay: [3H]CP55,940 displacement assay, CB2R WT
Format: binding

{"columns": ["structureAsSmiles", "Ki, µM"],
 "data": [
  ["CCCCC/C=C\\C/C=C\\C/C=C\\C/C=C\\CCCC(=O)OC(CO)CO", 1.58]
]}

* * *

Biological target: CB2R-I110^3.29A (Homo sapiens, UniProt P34972, I110A)
Sequence (P34972 whole entry I110A): as the sequence (P34972 whole entry I110L) above, with L110A counted along it
Experiment: [35S]GTPγS assay, CB2R I110A mutant
Details: I110A mutant, HEK293T membranes
pEC50: −log10 of the molar value.

{"columns": ["structureAsSmiles", "pEC50"],
 "data": [
  ["CC(C)CN1C(=O)CN(Cc2ccc(-c3ccc(F)c(CNC4CCOCC4)n3)cc2)C1=O", 7.00]
]}

* * *

Molecular target: CB1R-H270^ECL2L (Homo sapiens, UniProt P21554, H270L)
Sequence (P21554 whole entry H270L): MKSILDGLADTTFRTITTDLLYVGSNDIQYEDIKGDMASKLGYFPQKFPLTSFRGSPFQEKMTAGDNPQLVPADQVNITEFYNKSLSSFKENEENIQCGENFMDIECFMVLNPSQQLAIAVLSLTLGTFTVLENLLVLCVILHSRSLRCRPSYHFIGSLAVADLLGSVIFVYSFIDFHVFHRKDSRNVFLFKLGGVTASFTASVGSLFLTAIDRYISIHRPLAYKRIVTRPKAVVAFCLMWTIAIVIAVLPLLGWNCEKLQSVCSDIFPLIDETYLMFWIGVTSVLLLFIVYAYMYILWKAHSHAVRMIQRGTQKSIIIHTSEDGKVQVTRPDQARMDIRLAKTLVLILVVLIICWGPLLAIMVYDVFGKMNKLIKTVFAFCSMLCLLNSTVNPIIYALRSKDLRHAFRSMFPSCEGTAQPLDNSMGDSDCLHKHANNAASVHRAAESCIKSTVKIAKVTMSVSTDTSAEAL
Assay: [35S]GTPγS assay, CB1R H270L mutant
Assay type: biochemical
Details: CB1R H270L; 10 µM agonist
attributeMeasured: Agonist-mediated activation (fold over its basal)

{"columns": ["structureAsSmiles", "unitOfMeasure", "measurement"],
 "data": [
  ["CC(C)CN1C(=O)CN(Cc2ccc(-c3ccc(F)c(CNC4CCOCC4)n3)cc2)C1=O", "fold over its basal", 1.2],
  ["CCCCCCC(C)(C)c1cc(OC)c([C@@H]2C=C(CO)[C@@H]3C[C@H]2C3(C)C)c(OC)c1", "fold over its basal", 1.2],
  ["CCCCC/C=C\\C/C=C\\C/C=C\\C/C=C\\CCCC(=O)OC(CO)CO", "fold over its basal", 1.5],
  ["CC(C)(C)[C@@H](CO)NC(=O)c1nn(-c2c[n+]([O-])ccn2)c2c1C[C@@H]1C[C@H]21", "fold over its basal", 1.1]
]}

* * *

Target: CB2R-E181^ECL2D (Homo sapiens, UniProt P34972, E181D)
Sequence (P34972 whole entry E181D): as the sequence (P34972 whole entry) above, with E181D counted along it
Test: [35S]GTPγS assay, CB2R E181D mutant
Conditions: E181D mutant; <5 when curve fit not finished
# reported EC50; entries follow

{"columns": ["structureAsSmiles", "EC50"],
 "data": [
  ["CCCCC/C=C\\C/C=C\\C/C=C\\C/C=C\\CCCC(=O)OC(CO)CO", "> 10000 nM"],
  ["CC(C)CN1C(=O)CN(Cc2ccc(-c3ccc(F)c(CNC4CCOCC4)n3)cc2)C1=O", "126 nM"]
]}
